Values were extracted from ChEMBL document CHEMBL5344441.

- procedure-text: Oral bioavailability in mouse at 10 mg/kg
- Type: ADME, organism-based
- run-conditions: in vivo
readout-name: bioavailability (%)
Please respond with the number in % and leave the unit unwritten.

For this compound ( CN1CCN([C@@H]2CCCN(c3cnc(C(N)=O)c(Nc4ccc(C5CCN(C[C@H]6CCN(c7ccc8c(c7)C(=O)N(C7CCC(=O)NC7=O)C8=O)C6)CC5)cc4)n3)C2)C1=O (stereo partly specified) ), measured bioavailability is 5.4

###

- tested-target: Protein cereblon/Tyrosine-protein kinase BTK (Homo sapiens, UniProt Q06187+Q96SW2)
- Sequence (Q06187 2-659 limits assumed): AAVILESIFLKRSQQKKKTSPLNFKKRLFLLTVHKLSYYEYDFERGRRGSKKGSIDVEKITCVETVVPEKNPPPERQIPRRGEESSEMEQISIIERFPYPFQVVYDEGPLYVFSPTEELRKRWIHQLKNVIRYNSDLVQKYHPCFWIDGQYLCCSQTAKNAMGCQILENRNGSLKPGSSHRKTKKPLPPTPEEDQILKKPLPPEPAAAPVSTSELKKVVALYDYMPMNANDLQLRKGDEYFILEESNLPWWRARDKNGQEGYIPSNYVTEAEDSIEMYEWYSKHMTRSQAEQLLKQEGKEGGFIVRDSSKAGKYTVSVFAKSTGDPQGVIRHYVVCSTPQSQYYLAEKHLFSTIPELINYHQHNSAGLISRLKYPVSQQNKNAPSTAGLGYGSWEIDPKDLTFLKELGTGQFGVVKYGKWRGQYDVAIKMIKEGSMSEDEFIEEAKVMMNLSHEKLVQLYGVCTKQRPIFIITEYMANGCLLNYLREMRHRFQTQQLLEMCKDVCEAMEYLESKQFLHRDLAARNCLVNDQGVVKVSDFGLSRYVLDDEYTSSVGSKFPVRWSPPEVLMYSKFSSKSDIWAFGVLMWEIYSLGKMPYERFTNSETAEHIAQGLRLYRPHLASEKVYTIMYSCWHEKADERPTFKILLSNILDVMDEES
- Sequence (Q96SW2 whole entry partner): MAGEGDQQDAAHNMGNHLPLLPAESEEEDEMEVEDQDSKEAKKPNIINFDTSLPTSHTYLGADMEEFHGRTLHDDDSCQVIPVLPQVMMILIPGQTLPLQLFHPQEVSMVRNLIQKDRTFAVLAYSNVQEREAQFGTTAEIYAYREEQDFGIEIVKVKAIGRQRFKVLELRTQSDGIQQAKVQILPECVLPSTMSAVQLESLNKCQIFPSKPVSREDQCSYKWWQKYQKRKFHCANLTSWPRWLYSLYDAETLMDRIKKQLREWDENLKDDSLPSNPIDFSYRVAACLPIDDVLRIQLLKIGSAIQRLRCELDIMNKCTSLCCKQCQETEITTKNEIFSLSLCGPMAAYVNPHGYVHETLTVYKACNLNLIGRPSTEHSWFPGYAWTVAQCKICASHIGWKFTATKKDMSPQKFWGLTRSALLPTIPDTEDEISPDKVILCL
- procedure-text: PROTAC activity at CRBN/BTK in human Ramos cells assessed as maximal degradation of BTK protein incubated for 4 hrs by HTRF assay relative to control
- Assay type: cell-based
List of Emax values.
Hi, when you answer, please include the unit after the number. Thanks!

compound | readout-name | assay-result
CN1CCN([C@@H]2CCCN(c3cnc(C(N)=O)c(Nc4ccc(C5CCN(C[C@@H]6CCN(c7ccc8c(c7)C(=O)N(C7CCC(=O)NC7=O)C8=O)C6)CC5)cc4)n3)C2)C1=O (stereo partly drawn) | Emax | 93%
CN1CCN([C@@H]2CCCN(c3cnc(C(N)=O)c(Nc4ccc(C5CCN(CC6CCN(c7ccc8c(c7)C(=O)N(C7CCC(=O)NC7=O)C8=O)CC6)CC5)cc4)n3)C2)C1=O (stereo partly drawn) | Emax | 94%

Moving on to the next compound.
// field: Emax; key: C[C@H]1CN(C(=O)CCOCCCc2cccc3c2CN(C2CCC(=O)NC2=O)C3=O)CCN1c1ccc(Nc2cc(-c3ccnc(N4CCn5c(cc6c5CC(C)(C)C6)C4=O)c3CO)cn(C)c2=O)nc1 (stereo partly drawn) ; value = 88%

###

- tested-target: Protein cereblon/Zinc finger protein Aiolos (Homo sapiens, UniProt Q96SW2+Q9UKT9)
- Sequence (Q96SW2 whole entry): as the sequence (Q96SW2 whole entry partner) above
- Sequence (Q9UKT9 whole entry): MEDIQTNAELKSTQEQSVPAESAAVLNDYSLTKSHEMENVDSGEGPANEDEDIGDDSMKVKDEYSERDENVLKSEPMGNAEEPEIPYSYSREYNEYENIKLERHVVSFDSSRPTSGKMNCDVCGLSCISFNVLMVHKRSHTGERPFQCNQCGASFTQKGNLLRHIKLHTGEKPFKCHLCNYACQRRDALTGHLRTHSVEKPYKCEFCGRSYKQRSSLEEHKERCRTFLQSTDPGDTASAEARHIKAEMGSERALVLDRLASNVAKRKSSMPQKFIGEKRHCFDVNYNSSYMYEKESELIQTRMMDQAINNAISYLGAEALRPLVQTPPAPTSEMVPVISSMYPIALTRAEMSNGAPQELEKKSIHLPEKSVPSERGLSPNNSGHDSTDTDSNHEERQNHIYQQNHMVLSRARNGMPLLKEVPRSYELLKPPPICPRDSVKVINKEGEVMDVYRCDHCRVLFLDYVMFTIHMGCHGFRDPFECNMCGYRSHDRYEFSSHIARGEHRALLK
- procedure-text: PROTAC activity at CRBN/IKZF3 in human T cell assessed as degradation of IKZF3 protein incubated for 24 hrs by flow cytometry
- Type: cell-based
readout-name: DC50

compound | tested-target | assay-result
CN1CCN([C@@H]2CCCN(c3cnc(C(N)=O)c(Nc4ccc5c(c4)CCN(CC4CCN(c6ccc7c(c6)C(=O)N(C6CCC(=O)NC6=O)C7=O)CC4)C5)n3)C2)C1=O (stereo not given in full) | Protein cereblon/Zinc finger protein Aiolos (Homo sapiens, UniProt Q96SW2+Q9UKT9) | 14 nM
CN1CCN([C@@H]2CCCN(c3cnc(C(N)=O)c(Nc4ccc(C5CCN(C[C@H]6CC[C@H](Nc7cccc8c7C(=O)N(C7CCC(=O)NC7=O)C8=O)CC6)CC5)cc4)n3)C2)C1=O (stereo not given in full) | Protein cereblon/Zinc finger protein Aiolos (Homo sapiens, UniProt Q96SW2+Q9UKT9) | 40 nM
CN1CCN([C@@H]2CCCN(c3cnc(C(N)=O)c(Nc4ccc(C5CCN(CC6CCN(c7ccc8c(c7)C(=O)N(C7CCC(=O)NC7=O)C8=O)CC6)CC5)cc4)n3)C2)C1=O (stereo not given in full) | Protein cereblon/Zinc finger protein Aiolos (Homo sapiens, UniProt Q96SW2+Q9UKT9) | 28 nM

Kindly note the recorded DC50 for CN1CCN([C@@H]2CCCN(c3cnc(C(N)=O)c(Nc4ccc(C5CCN(C[C@H]6CC[C@@H](Nc7cccc8c7C(=O)N(C7CCC(=O)NC7=O)C8=O)CC6)CC5)cc4)n3)C2)C1=O (stereo not given in full) , which is > 2000 nM

// sample CN1CCN([C@@H]2CCCN(c3cnc(C(N)=O)c(Nc4ccc(N5CC6(C5)CN(c5ccc7c(c5)C(=O)N(C5CCC(=O)NC5=O)C7=O)C6)cc4)n3)C2)C1=O (stereo not given in full) , its DC50 was 14 nM
